System Name: Delta-type opioid receptor (Rattus norvegicus)
Sequence (P33533 whole entry): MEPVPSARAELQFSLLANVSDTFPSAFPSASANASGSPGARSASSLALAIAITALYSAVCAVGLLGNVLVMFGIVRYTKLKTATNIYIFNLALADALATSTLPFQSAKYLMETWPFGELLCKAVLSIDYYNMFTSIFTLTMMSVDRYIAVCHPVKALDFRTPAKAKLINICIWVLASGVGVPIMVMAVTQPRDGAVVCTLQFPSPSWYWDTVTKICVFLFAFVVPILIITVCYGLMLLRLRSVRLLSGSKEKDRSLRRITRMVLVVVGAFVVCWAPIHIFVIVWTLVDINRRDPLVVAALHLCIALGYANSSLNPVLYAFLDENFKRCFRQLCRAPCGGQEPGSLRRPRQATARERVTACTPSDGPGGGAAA
Assay Details: Inhibition of binding of [3H][D-Ala2,D-Leu5]enkephalin to Opioid receptor delta 1 in the rat brain homogenate
Type: tissue-based
In this section, each of the compounds is paired with its reported IC50.

{"Sample Smiles": "CC(C)C[C@@H]1NC(=O)[C@H](Cc2ccccc2)NC(=O)CNC(=O)[C@H](NC(=O)[C@@H](N)Cc2ccc(O)cc2)CCCNC1=O", "System Name": "Delta-type opioid receptor (Rattus norvegicus)", "IC50 (nM)": 221}
{"Sample Smiles": "CC(C)C[C@@H]1NC(=O)[C@H](Cc2ccccc2)NC(=O)CNC(=O)[C@H](NC(=O)[C@@H](N)Cc2ccc(O)cc2)CCCCNC1=O", "System Name": "Delta-type opioid receptor (Rattus norvegicus)", "IC50 (nM)": 32.2}
{"Sample Smiles": "CC(C)C[C@@H]1NC(=O)[C@H](Cc2ccccc2)NC(=O)CNC(=O)[C@H](NC(=O)[C@@H](N)Cc2ccc(O)cc2)CCNC1=O", "System Name": "Delta-type opioid receptor (Rattus norvegicus)", "IC50 (nM)": 253}
{"Sample Smiles": "CC(=O)O.CC(C)C[C@H]1NC(=O)[C@H](Cc2ccccc2)NC(=O)CNC(=O)[C@H](NC(=O)[C@@H](N)Cc2ccc(O)cc2)CCCCNC1=O", "System Name": "Delta-type opioid receptor (Rattus norvegicus)", "IC50 (nM)": 47.8}
{"Sample Smiles": "CC(=O)O.CC[C@@H](NC(=O)[C@@H](N)Cc1ccc(O)cc1)C(=O)NCC(=O)N[C@@H](Cc1ccccc1)C(=O)N[C@@H](CC(C)C)C(N)=O", "System Name": "Delta-type opioid receptor (Rattus norvegicus)", "IC50 (nM)": 8.94}
{"Sample Smiles": "CC(=O)O.CCCC[C@@H](NC(=O)[C@@H](N)Cc1ccc(O)cc1)C(=O)NCC(=O)N[C@@H](Cc1ccccc1)C(=O)N[C@@H](CC(C)C)C(N)=O", "System Name": "Delta-type opioid receptor (Rattus norvegicus)", "IC50 (nM)": 9.57}
{"Sample Smiles": "CC(=O)O.N[C@@H](Cc1ccc(O)cc1)C(=O)N[C@@H]1CCCCNC(=O)[C@H](Cc2ccccc2)NC(=O)CNC1=O", "System Name": "Delta-type opioid receptor (Rattus norvegicus)", "IC50 (nM)": 98.3}
{"Sample Smiles": "CC(=O)O.CCC[C@@H](NC(=O)[C@@H](N)Cc1ccc(O)cc1)C(=O)NCC(=O)N[C@@H](Cc1ccccc1)C(=O)N[C@@H](CC(C)C)C(N)=O", "System Name": "Delta-type opioid receptor (Rattus norvegicus)", "IC50 (nM)": 6.81}
